Test: Pharmacokinetics in rats (Table 1)
Format: in vivo
Settings: rat, plasma, read-out: Cmax (maximum concentration in the plasma)
MEASUREMENT_KIND: Cmax (ng/mL)

{"columns": ["COMPOUND", "EXPERIMENTAL_VALUE"],
 "data": [
  ["COC1C=COC2(C)Oc3c(C)c(O)c4c(O)c(c(N5CCN(Cc6ccccc6C)CC5)c(O)c4c3C2=O)NC(=O)C(C)=CC=CC(C)C(O)C(C)C(O)C(C)C(OC(C)=O)C1C (stereo not shown)", 1320],
  ["CO[C@H]1/C=C/O[C@@]2(C)Oc3c(C)c(O)c4c(O)c(c(/C=N/N5CCN(C)CC5)c(O)c4c3C2=O)NC(=O)/C(C)=C\\C=C\\[C@H](C)[C@H](O)[C@@H](C)[C@@H](O)[C@@H](C)[C@H](OC(C)=O)[C@@H]1C", 1390],
  ["COC1C=COC2(C)Oc3c(C)c(O)c4c(O)c(c(N5CCN(Cc6cccc7ccccc67)CC5)c(O)c4c3C2=O)NC(=O)C(C)=CC=CC(C)C(O)C(C)C(O)C(C)C(OC(C)=O)C1C (stereo not shown)", 1120],
  ["COC1C=COC2(C)Oc3c(C)c(O)c4c(O)c(c(N5CCN(Cc6c(C)cc(C)cc6C)CC5)c(O)c4c3C2=O)NC(=O)C(C)=CC=CC(C)C(O)C(C)C(O)C(C)C(OC(C)=O)C1C (stereo not shown)", 1510]
]}

---

Experiment: Pharmacokinetics in mice (Table 1)
Type: in vivo
Details: mouse, plasma, read-out: Cmax (maximum concentration in the plasma)
Readings of Cmax for the listed compounds

{"columns": ["COMPOUND", "READOUT_UNIT", "Cmax"],
 "data": [
  ["C=C(C)CN1CCN(c2c3c(O)c4c(O)c(C)c5c(c4c2O)C(=O)C(C)(OC=CC(OC)C(C)C(OC(C)=O)C(C)C(O)C(C)C(O)C(C)C=CC=C(C)C(=O)N3)O5)CC1 (centres unmarked)", "ng/mL", 1400],
  ["COC1C=COC2(C)Oc3c(C)c(O)c4c(O)c(c(N5CCN(Cc6c(C)cc(C)cc6C)CC5)c(O)c4c3C2=O)NC(=O)C(C)=CC=CC(C)C(O)C(C)C(O)C(C)C(OC(C)=O)C1C (centres unmarked)", "ng/mL", 2950],
  ["COC1C=COC2(C)Oc3c(C)c(O)c4c(O)c(c(N5CCN(Cc6cccc7ccccc67)CC5)c(O)c4c3C2=O)NC(=O)C(C)=CC=CC(C)C(O)C(C)C(O)C(C)C(OC(C)=O)C1C (centres unmarked)", "ng/mL", 1880],
  ["COC1C=COC2(C)Oc3c(C)c(O)c4c(O)c(c(N5CCN(Cc6ccc(C(C)C)cc6)CC5)c(O)c4c3C2=O)NC(=O)C(C)=CC=CC(C)C(O)C(C)C(O)C(C)C(OC(C)=O)C1C (centres unmarked)", "ng/mL", 1810],
  ["COC1C=COC2(C)Oc3c(C)c(O)c4c(O)c(c(N5CCN(CC(C)C)CC5)c(O)c4c3C2=O)NC(=O)C(C)=CC=CC(C)C(O)C(C)C(O)C(C)C(OC(C)=O)C1C (centres unmarked)", "ng/mL", 1200]
]}

---

Assay: Pharmacokinetics in rats (Table 1)
Assay type: in vivo
Conditions: rat, in vivo, read-out: t/2 (halflife of the elimination) (converted)

{"columns": ["COMPOUND", "READOUT_UNIT", "half-life"],
 "data": [
  ["COC1C=COC2(C)Oc3c(C)c(O)c4c(O)c(c(N5CCN(Cc6ccccc6C)CC5)c(O)c4c3C2=O)NC(=O)C(C)=CC=CC(C)C(O)C(C)C(O)C(C)C(OC(C)=O)C1C (stereo not drawn) [Compound 1]", "h", 86],
  ["COC1C=COC2(C)Oc3c(C)c(O)c4c(O)c(c(N5CCN(Cc6cccc7ccccc67)CC5)c(O)c4c3C2=O)NC(=O)C(C)=CC=CC(C)C(O)C(C)C(O)C(C)C(OC(C)=O)C1C (stereo not drawn) [B]", "h", 111]
]}

---

Test: Pharmacokinetics in mice (Table 1)
Type: in vivo
Conditions: mouse, in vivo, read-out: t/2 (halflife of the elimination) (converted)

{"columns": ["COMPOUND", "READOUT_UNIT", "half-life"],
 "data": [
  ["COC1C=COC2(C)Oc3c(C)c(O)c4c(O)c(c(N5CCN(CC(C)C)CC5)c(O)c4c3C2=O)NC(=O)C(C)=CC=CC(C)C(O)C(C)C(O)C(C)C(OC(C)=O)C1C (centres unmarked)", "min", 720],
  ["COC1C=COC2(C)Oc3c(C)c(O)c4c(O)c(c(N5CCN(Cc6ccc(C)cc6)CC5)c(O)c4c3C2=O)NC(=O)C(C)=CC=CC(C)C(O)C(C)C(O)C(C)C(OC(C)=O)C1C (centres unmarked)", "min", 690],
  ["COC1C=COC2(C)Oc3c(C)c(O)c4c(O)c(c(N5CCN(Cc6cccc7ccccc67)CC5)c(O)c4c3C2=O)NC(=O)C(C)=CC=CC(C)C(O)C(C)C(O)C(C)C(OC(C)=O)C1C (centres unmarked)", "min", 2910],
  ["C=C(C)CN1CCN(c2c3c(O)c4c(O)c(C)c5c(c4c2O)C(=O)C(C)(OC=CC(OC)C(C)C(OC(C)=O)C(C)C(O)C(C)C(O)C(C)C=CC=C(C)C(=O)N3)O5)CC1 (centres unmarked)", "min", 1260],
  ["COC1C=COC2(C)Oc3c(C)c(O)c4c(O)c(c(N5CCN(Cc6cccc(C)c6)CC5)c(O)c4c3C2=O)NC(=O)C(C)=CC=CC(C)C(O)C(C)C(O)C(C)C(OC(C)=O)C1C (centres unmarked)", "min", 714]
]}

---

Assay: Pharmacokinetics in mice (Table 1)
Type: in vivo
Details: mouse, in vivo, read-out: t/2 (halflife of the elimination) (converted)
Parameter: half-life. Scope: all listed entries.
MEASUREMENT_KIND: half-life (h)

{"columns": ["COMPOUND", "MEASUREMENT_KIND", "READOUT_UNIT", "EXPERIMENTAL_VALUE"],
 "data": [
  ["COC1C=COC2(C)Oc3c(C)c(O)c4c(O)c(c(N5CCN(Cc6ccc(C(C)C)cc6)CC5)c(O)c4c3C2=O)NC(=O)C(C)=CC=CC(C)C(O)C(C)C(O)C(C)C(OC(C)=O)C1C (stereo not drawn) [Compound 4]", "half-life", "h", 20.4],
  ["COC1C=COC2(C)Oc3c(C)c(O)c4c(O)c(c(N5CCN(Cc6c(C)cc(C)cc6C)CC5)c(O)c4c3C2=O)NC(=O)C(C)=CC=CC(C)C(O)C(C)C(O)C(C)C(OC(C)=O)C1C (stereo not drawn) [A]", "half-life", "h", 47.4],
  ["COC1C=COC2(C)Oc3c(C)c(O)c4c(O)c(c(N5CCN(Cc6ccccc6C)CC5)c(O)c4c3C2=O)NC(=O)C(C)=CC=CC(C)C(O)C(C)C(O)C(C)C(OC(C)=O)C1C (stereo not drawn) [Compound 1]", "half-life", "h", 22.9]
]}

---

Assay: Pharmacokinetics in mice (Table 1)
Format: in vivo
Conditions: mouse, plasma, read-out: Cmax (maximum concentration in the plasma)
molecules and their reported Cmax

{"columns": ["MOLECULE", "Cmax / ng/mL"],
 "data": [
  ["COC1C=COC2(C)Oc3c(C)c(O)c4c(O)c(c(N5CCN(Cc6cccc(C)c6)CC5)c(O)c4c3C2=O)NC(=O)C(C)=CC=CC(C)C(O)C(C)C(O)C(C)C(OC(C)=O)C1C (stereo not shown)", 3390],
  ["CO[C@H]1/C=C/O[C@@]2(C)Oc3c(C)c(O)c4c(O)c(c(/C=N/N5CCN(C)CC5)c(O)c4c3C2=O)NC(=O)/C(C)=C\\C=C\\[C@H](C)[C@H](O)[C@@H](C)[C@@H](O)[C@@H](C)[C@H](OC(C)=O)[C@@H]1C", 2480],
  ["COC1C=COC2(C)Oc3c(C)c(O)c4c(O)c(c(N5CCN(Cc6ccc(C)cc6)CC5)c(O)c4c3C2=O)NC(=O)C(C)=CC=CC(C)C(O)C(C)C(O)C(C)C(OC(C)=O)C1C (stereo not shown)", 2280],
  ["COC1C=COC2(C)Oc3c(C)c(O)c4c(O)c(c(N5CCN(Cc6ccccc6C)CC5)c(O)c4c3C2=O)NC(=O)C(C)=CC=CC(C)C(O)C(C)C(O)C(C)C(OC(C)=O)C1C (stereo not shown)", 2690]
]}
